target_system: Plasmepsin V (PmV) (Plasmodium falciparum, UniProt Q8I6Z5)
Sequence (Q8I6Z5 whole entry): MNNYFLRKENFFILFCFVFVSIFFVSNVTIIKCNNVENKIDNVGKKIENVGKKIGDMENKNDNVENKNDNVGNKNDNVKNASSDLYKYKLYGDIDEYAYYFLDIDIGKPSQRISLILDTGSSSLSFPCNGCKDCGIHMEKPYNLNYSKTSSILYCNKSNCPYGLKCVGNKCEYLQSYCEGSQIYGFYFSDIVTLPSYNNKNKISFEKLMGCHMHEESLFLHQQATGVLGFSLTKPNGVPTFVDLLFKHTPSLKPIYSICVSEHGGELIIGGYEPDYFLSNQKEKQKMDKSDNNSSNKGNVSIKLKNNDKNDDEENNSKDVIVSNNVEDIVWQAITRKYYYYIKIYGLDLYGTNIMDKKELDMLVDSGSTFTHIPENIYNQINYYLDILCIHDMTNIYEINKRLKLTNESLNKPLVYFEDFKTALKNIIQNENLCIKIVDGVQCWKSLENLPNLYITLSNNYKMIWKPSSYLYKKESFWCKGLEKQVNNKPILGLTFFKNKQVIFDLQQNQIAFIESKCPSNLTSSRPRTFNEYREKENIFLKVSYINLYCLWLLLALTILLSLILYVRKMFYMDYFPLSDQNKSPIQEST
// assign Satisfied if Ki falls strictly below 60 nM, else Not satisfied (ties count as Not satisfied)

Solved entries (count: 5):
CC(C)C[C@H](NC(=O)[C@@H](N)Cc1c[nH]cn1)C(=O)N[C@@H](CC(C)C)[C@@H](O)CN[C@@H](Cc1ccc(O)cc1)C(=O)N[C@@H](CCC(N)=O)C(=O)N[C@@H](C)C(N)=O [Compound 20a] ... Not satisfied
CC(C)C[C@H](NC(=O)[C@@H](N)CCC(N)=O)C(=O)N[C@@H](CC(C)C)[C@@H](O)CN[C@@H](C)C(=O)N[C@@H](CCC(=O)O)C(=O)N[C@@H](C)C(=O)O [Compound 17a] ... Not satisfied
CC(C)C[C@H](NC(=O)[C@@H](N)CCCCN)C(=O)N[C@@H](CC(C)C)[C@@H](O)CN[C@@H](C)C(=O)N[C@@H](CCC(=O)O)C(=O)N[C@@H](C)C(N)=O [Compound 13a] ... Not satisfied
CC(C)C[C@H](NC(=O)[C@@H](N)CCCNC(=N)N)C(=O)N[C@@H](CC(C)C)C(O)CN[C@@H](C)C(=O)NCC(=O)O (mixture of isomers) [Compound 25] ... Satisfied
CC(C)C[C@H](NC(=O)[C@@H](N)CCCNC(=N)N)C(=O)N[C@@H](CC(C)C)C(O)CN[C@@H](C)C(=O)N[C@@H](CCC(=O)O)C(=O)N[C@@H](C)C(N)=O (mixture of isomers) [Compound 1] ... Satisfied

Exam item: Lab log: compare recorded Ki with 60 nM; is it strictly lower for CC(C)C[C@H](NC(=O)[C@@H](N)CCCNC(=N)N)C(=O)N[C@@H](CC(C)C)[C@H](O)CN[C@@H](Cc1ccc(O)cc1)C(=O)N[C@@H](CCC(=O)O)C(N)=O [Compound 2b] ?
Marked response: Satisfied

====

target_system: Plasmepsin V (PmV) (Plasmodium falciparum)
Construct: PmV was purified directly from parasites; made in house
procedure_text: PmV inhibition, fluorimetric PExEl cleavage assay
Type: biochemical
test_settings: Activity; read-out: IC50
outcome_measure: pIC50
pIC50 field: float, defined as -log10 of concentration (mol/L).

Example entries begin here.
CC(C)C[C@H](NC(=O)[C@@H](N)Cc1c[nH]c2ccccc12)C(=O)N[C@@H](CC(C)C)C(O)CN[C@@H](C)C(=O)N[C@@H](CCC(=O)O)C(N)=O (mixture of isomers) ... 4.40
CC(C)C[C@H](NC(=O)[C@@H](N)CCCCN)C(=O)N[C@@H](CC(C)C)[C@@H](O)CN[C@@H](Cc1ccc(O)cc1)C(=O)N[C@@H](CCC(=O)O)C(N)=O ... 4.76

Let us examine a further case.
Exam item: What pIC50 value was documented for this compound, `CC(C)C[C@H](NC(=O)[C@@H](N)CCCNC(=N)N)C(=O)N[C@@H](CC(C)C)[C@H](O)CN[C@@H](Cc1ccc(O)cc1)C(=O)NCC(=O)O` ?
Marked response: 6.95

====

Listed here are compounds together with their documented IC50.
target_system: Plasmepsin V (PmV) (Plasmodium falciparum)
Construct: PmV was purified directly from parasites; made in house
procedure_text: PmV inhibition, fluorimetric PExEl cleavage assay
Assay type: biochemical
test_settings: Activity; read-out: pIC50 (converted)
Procedure: Saponin was added to culture to a final 0.05%; parasites were recovered via centrifugation at 4°C after 5 min of incubation on ice; parasite pellets were then washed twice in cold PBS and either immediately lysed or stored at -80°C until lysis. […] Quantification of PmV was performed via densitometry analysis of stained protein SDS-PAGE gels relative to BSA standard curves. PExEl cleavage activity was monitored by fluorimetric measurement of PExEl cleavage, as previously reported. […]
Unit µM implied. Number only.

Exam item: What IC50 value was documented for this compound, CC(C)C[C@H](NC(=O)[C@@H](N)CCCNC(=N)N)C(=O)N[C@@H](CC(C)C)C(O)CN[C@@H](C)C(=O)N[C@@H](CCC(=O)O)C(=O)N[C@@H](C)C(N)=O (stereo partly drawn) [LG20_Mix] ?
Marked response: 0.000363

Exam item: Moving on to the next compound: CCCCCCCC(=O)N[C@@H](CCCNC(=N)N)C(=O)N[C@@H](CC(C)C)C(=O)N[C@@H](CC(C)C)[C@H](O)CN[C@@H](Cc1ccc(O)cc1)C(=O)N[C@@H](CCC(=O)O)C(=O)N[C@@H](C)C(N)=O [LG63B_R]
Marked response: 0.00158

Exam item: Moving on to the next compound: CC(C)C[C@H](NC(=O)[C@@H](N)Cc1c[nH]c2ccccc12)C(=O)N[C@@H](CC(C)C)C(O)CN[C@@H](C)C(=O)N[C@@H](CCC(=O)O)C(N)=O (mixture of isomers) [LG51_Mix]
Marked response: 39.8

Exam item: Moving on to the next compound: CC(C)C[C@H](NC(=O)[C@@H](N)CCCNC(=N)N)C(=O)N[C@@H](CC(C)C)[C@H](O)CN[C@@H](Cc1ccc(O)cc1)C(=O)NCC(=O)O [LG69B_R]
Marked response: 0.112

Exam item: Moving on to the next compound: CC(C)C[C@H](NC(=O)[C@@H](N)CCCCN)C(=O)N[C@@H](CC(C)C)[C@@H](O)CN[C@@H](Cc1ccc(O)cc1)C(=O)N[C@@H](CCC(=O)O)C(N)=O [LG62A_S]
Marked response: 17.4

Exam item: Moving on to the next compound: CC(C)C[C@H](NC(=O)[C@@H](N)CCCCN)C(=O)N[C@@H](CC(C)C)[C@@H](O)CN[C@@H](C)C(=O)N[C@@H](CCC(=O)O)C(N)=O [LG61A_S]
Marked response: 8.13

====

target_system: Plasmepsin V (PmV) (Plasmodium falciparum, UniProt Q8I6Z5)
Construct: PmV was purified directly from parasites; made in house
procedure_text: PmV inhibition, fluorimetric PExEl cleavage assay
Type: biochemical
test_settings: pre-mixing the enzyme with inhibitor; read-out: IC50
outcome_measure: pIC50
pIC50 field: float, defined as -log10 of concentration (mol/L).

Exam item: What pIC50 value was documented for this compound, CC(C)C[C@H](NC(=O)[C@@H](N)CCCNC(=N)N)C(=O)N[C@@H](CC(C)C)C(O)CN[C@@H](C)C(=O)N[C@@H](CCC(=O)O)C(=O)N[C@@H](C)C(N)=O (mixture of isomers) [Compound 1] ?
Marked response: 9.44

====

target_system: Plasmepsin V (PmV) (Plasmodium falciparum)
Square brackets hold non-standard residues; d marks the D form. Peptide text beside a SMILES is read from it. * marks the point of attachment. Sta = CC(C)C[C@H](N)[C@@H](O)CC(=O)O; Isovaleryl = CC(C)CC(=O)*
Listed here are compounds together with their documented log10(Ki).
// stored as log10 of Ki expressed in nM

Example entries begin here.
CC(C)C[C@H](NC(=O)[C@@H](N)CCCNC(=N)N)C(=O)N[C@@H](CC(C)C)C(O)CN[C@@H](C)C(=O)N[C@@H](CCC(=O)O)C(N)=O (mixture of isomers) ... -0.66
CC(C)CC(=O)N[C@H](C(=O)N[C@H](C(=O)N[C@@H](CC(C)C)[C@@H](O)CC(=O)N[C@@H](C)C(=O)N[C@@H](CC(C)C)[C@@H](O)CC(=O)O)C(C)C)C(C)C [Pepstatin A, reference compound] (Isovaleryl-VV[Sta]A[Sta]-OH) ... 4.37
CC(C)C[C@H](NC(=O)[C@@H](N)Cc1ccc(O)cc1)C(=O)N[C@@H](CC(C)C)[C@H](O)CN[C@@H](C)C(=O)N[C@@H](CCC(=O)O)C(=O)N[C@@H](C)C(N)=O ... 3.82
CC(C)C[C@H](NC(=O)[C@@H](N)CCCNC(=N)N)C(=O)N[C@@H](CC(C)C)[C@@H](O)CN[C@@H](Cc1ccc(O)cc1)C(=O)N[C@@H](CCC(=O)O)C(N)=O ... -0.01
CC(C)C[C@H](NC(=O)[C@@H](N)CCCNC(=N)N)C(=O)N[C@@H](CC(C)C)[C@@H](O)CN[C@@H](Cc1ccc(O)cc1)C(=O)N[C@@H](CCC(=O)O)C(=O)N[C@@H](C)C(N)=O ... -0.13

Let us examine a further case.
Exam item: What log10(Ki) value was documented for this compound, CC(C)C[C@H](NC(=O)[C@@H](N)Cc1c[nH]cn1)C(=O)N[C@@H](CC(C)C)[C@@H](O)CN[C@@H](C)C(=O)N[C@@H](CCC(=O)O)C(=O)N[C@@H](C)C(N)=O [Compound 14a] ?
Marked response: 2.96

====

Record: Ki reported on Plasmepsin V (PmV) (Plasmodium falciparum, UniProt Q8I6Z5).
Unit nM implied. Number only.

CC[C@H](C)[C@H](NC(=O)[C@@H](N)CCCNC(=N)N)C(=O)N[C@@H](CC(C)C)C(O)CN[C@@H](C)C(=O)N[C@@H](CCC(=O)O)C(=O)N[C@@H](C)C(=O)O (mixture of isomers) ... 1.16
CC(C)C[C@H](NC(=O)[C@@H](N)CCCCN)C(=O)N[C@@H](CC(C)C)C(O)CN[C@@H](C)C(=O)N[C@@H](CCC(=O)O)C(N)=O (mixture of isomers) ... 1060
CC(C)C[C@H](NC(=O)[C@@H](N)CCCNC(=N)N)C(=O)N[C@@H](CC(C)C)[C@@H](O)CN[C@@H](Cc1ccc(O)cc1)C(=O)NCC(=O)O [Compound 27a] ... 1.86

Let us examine a further case.
Exam item: What Ki value was documented for this molecule, CC(=O)N[C@@H](CCCNC(=N)N)C(=O)N[C@@H](CC(C)C)C(=O)N[C@@H](CC(C)C)C(O)CN[C@@H](C)C(=O)N[C@@H](CCC(N)=O)C(=O)N[C@@H](C)C(N)=O (mixture of isomers) ?
Marked response: 63.5
